Items are presented alongside their recorded median log2 fold change.
target.under.test: T1, USP38, Q8NB14
T1 chain: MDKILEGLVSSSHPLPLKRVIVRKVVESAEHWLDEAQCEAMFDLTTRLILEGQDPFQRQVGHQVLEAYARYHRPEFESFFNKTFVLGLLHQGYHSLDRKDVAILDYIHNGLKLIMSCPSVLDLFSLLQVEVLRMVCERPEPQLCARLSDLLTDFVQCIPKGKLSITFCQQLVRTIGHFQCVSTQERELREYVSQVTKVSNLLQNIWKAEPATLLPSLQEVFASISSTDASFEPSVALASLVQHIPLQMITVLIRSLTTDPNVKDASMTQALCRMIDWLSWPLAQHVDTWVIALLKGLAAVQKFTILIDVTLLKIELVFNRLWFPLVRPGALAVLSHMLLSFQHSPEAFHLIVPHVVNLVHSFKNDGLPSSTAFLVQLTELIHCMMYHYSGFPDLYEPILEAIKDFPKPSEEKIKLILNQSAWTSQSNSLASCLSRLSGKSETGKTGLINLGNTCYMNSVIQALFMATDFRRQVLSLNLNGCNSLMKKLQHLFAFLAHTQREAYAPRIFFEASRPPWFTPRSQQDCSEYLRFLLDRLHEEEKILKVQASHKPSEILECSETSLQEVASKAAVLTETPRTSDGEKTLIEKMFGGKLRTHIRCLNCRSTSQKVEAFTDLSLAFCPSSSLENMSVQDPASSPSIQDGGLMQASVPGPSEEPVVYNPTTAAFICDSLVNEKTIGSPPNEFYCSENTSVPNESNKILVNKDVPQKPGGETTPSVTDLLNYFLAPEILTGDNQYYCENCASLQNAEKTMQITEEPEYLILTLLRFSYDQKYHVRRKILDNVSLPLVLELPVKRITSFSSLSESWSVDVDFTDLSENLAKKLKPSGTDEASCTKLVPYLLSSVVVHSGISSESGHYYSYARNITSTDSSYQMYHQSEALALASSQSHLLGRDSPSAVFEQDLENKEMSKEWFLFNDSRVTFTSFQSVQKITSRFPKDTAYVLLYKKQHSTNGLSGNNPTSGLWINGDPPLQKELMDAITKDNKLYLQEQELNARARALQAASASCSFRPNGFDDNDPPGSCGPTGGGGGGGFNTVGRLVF
method.description: median log2 fold change of GCK-ALFA target abundance (FLAG IP / Myc IP barcode read proportion) (log2 ratio); each designed protein is fused to an ALFA-tag nanobody in HEK293 cells to bring the named protein to FLAG-tagged glucokinase (GCK); Myc marks an untargeted standard; higher = target protein stabilised (more abundant)
condition.set: target protein: 3xFLAG-MCP-GCK-ALFA reporter; HEK293 landing pad (RPLP)
When you answer, write just the number.

Here's what some known entries look like.
binder | median log2 fold change
usp_38_diff_out_18_14_318 (protein) SEELIKQTLSNVKKLTEEVKKDTKRTLKILEKLKDDKESALSLIDTRIQALNGVIKYAEELKKEAEKLGNKELAEAAKELIKAAKEAKKELEKRKKALKE | -0.746
usp_38_diff_out_18_28_393 (protein) SEERRKELEERLKALEAELDALITEATAVATERLEAHPDDEAVWELVDALFDALGAAAAALREARELLRAGGDLEEVEALLDQAEAALAEAKALLAELKA | -0.136
usp_38_diff_out_13_133_56 (protein) SMAEKKREEAKKLLEETKKKVEKLLEEAEKALKEGDVEKAWEKVGEAAGTLLKARDELTDLTEDDPELRKEVLKELKKLEEKLNKLIDKVEKALREEFLK | -0.0894
usp_38_diff_out_20_123_448 (protein) SEALRARAEELLRRAEQLLENAKQILKFVKAGVLSEETVESHIKMIESQIEYIRREIERLRAEDPSLAPLLEEVERVVREVEEVLEEIKKAVEERKKEKA | 0.273
usp_38_diff_out_14_54_126 (protein) SERLRRLLEEARRKLAEAERYLEEAEKALEEGAPLEEIERLLDEAARALGAAARALREAATLATDPESRAELEELRARADELTDRYTELAREAFLRRLEE | 0.0528

Q: // Input: usp_38_diff_out_1_153_16 (protein) SELEKMKEELEKILEEAKKLKEEIEKLIKEGKMTREKVDKYADELAELAKRFRELRSKAAENPEYYKELKELFKETLKALNEAVDALTKAAEQVFLKEAE . Output its median log2 fold change only.
A: -0.51

Q: // Input: usp_38_diff_out_18_28_381 (protein) AEARRAELERRLEELLRELNELIDEATKLATEKLTEHPDDEEVWELVDRLFDELGRAAAHLREARELLRAGAPAEEVEKELREAEEHLKRAKELLKELEA . Output its median log2 fold change only.
A: -0.371

Q: // Input: usp_38_diff_out_1_101_6 (protein) IEKELKKALEEFNKTLDETIKVYEEIEKLYKEMGNEEKAERAQRQRDALETYRKDTTAFIEELYKEDPESALELAKLALENAKTILKEAEKELKEVKAEK . Output its median log2 fold change only.
A: -0.129

Q: // Input: usp_38_diff_out_16_37_210 (protein) GEEVLKEFKEFMEKAIEEAKKLAEEAKKLAKEGADIEELKKLKEELEKLIDEAVEKTTEALEKVPEKIEEIFAEFDKFADEAAKAGKEIDKAIKEAKKKK . Output its median log2 fold change only.
A: -0.522

Q: // Input: usp_38_diff_out_16_109_166 (protein) SADEEADRLLAEAAIENFEKLAEEAKEELKKLKAKGASEEVLKAYEDLAKTAREAAEKIREALERGENLRETTREQWDKVGAKAAEASELRRAEARERSA . Output its median log2 fold change only.
A: 0.186
